Reference source for all entries: patent US20090197801A1

target: recombinant erythropoietin receptor (EPOR-Fc); test: SPR; Epo 3 peptide ionically bound to the chip, soluble recombinant EPOR-Fc as analyte; three independent experiments
Sequence (P19235 25-250): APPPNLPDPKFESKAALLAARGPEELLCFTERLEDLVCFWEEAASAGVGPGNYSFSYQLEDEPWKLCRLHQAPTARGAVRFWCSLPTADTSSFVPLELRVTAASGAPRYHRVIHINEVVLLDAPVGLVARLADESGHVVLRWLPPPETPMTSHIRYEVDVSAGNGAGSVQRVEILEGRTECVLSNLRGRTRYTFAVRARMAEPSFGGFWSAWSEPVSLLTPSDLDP
PARAMETER MEASURED: pKd
The scale used: pKd is minus the common logarithm of the concentration in molar units.

Prompt: Given QLHVDKAVSGLRSLTTLLRA [Epo3 peptide (Epo-peptide 3)] , respond with its pKd.
Completion: 8.35
